- System Name: Glutamate receptor ionotropic, kainate
- Protocol Description: In vitro binding affinity against synaptic membrane from rat brain using [3H]KAIN as the radioligand
- Assay type: tissue-based
Quantity Kind: IC50

**Q:** Query (compound): NC(Cc1onc(O)c1Br)C(=O)O (configuration not stated) ; field requested: IC50
**A:** > 100 µM

**Q:** Query (compound): N[C@H](Cc1onc(O)c1Br)C(=O)O ; field requested: IC50
**A:** > 100 µM

---

- Protocol Description: In vitro binding affinity against synaptic membrane from rat brain using [3H](R)-Asp as the radioligand
- Type: tissue-based
Please go through the items and note down their IC50.

**Q:** Query (molecule): N[C@H](Cc1onc(O)c1Br)C(=O)O ; field requested: IC50
**A:** > 100 µM

**Q:** Query (molecule): N[C@@H](Cc1onc(O)c1Br)C(=O)O ; field requested: IC50
**A:** > 100 µM

**Q:** Query (molecule): N[C@@H](CCC(=O)O)C(=O)O [GLUTAMIC ACID] ; field requested: IC50
**A:** 7.5 µM

**Q:** Query (molecule): NC(Cc1onc(O)c1Br)C(=O)O (stereo not given) ; field requested: IC50
**A:** > 100 µM

**Q:** Query (molecule): N[C@H](CCC(=O)O)C(=O)O [D-GLUTAMATE] ; field requested: IC50
**A:** > 100 µM

Entry source: ChEMBL document CHEMBL1124677
